Test system: ICR mice
test-protocol: Acute toxicity test
Type: in vivo
condition-info: male, 32.5 mg/kg i.p.
assay-readout: Number of dead mice for 7 days

CC1(C)O[C@H](CN)[C@@H](CN)O1.O=C1C[O][Pt][O]1 [Example 2]: 3/6
NC[C@H]1OC2(CCCCC2)O[C@@H]1CN.O=C1C[O][Pt][O]1 [Example 4]: 0/6
CC(C)C1O[C@H](CN)[C@@H](CN)O1.O=C1C[O][Pt][O]1 [Example 7]: 0/6
NC[C@H]1OC2(CCCC2)O[C@@H]1CN.O=C1C[O][Pt][O]1 [Example 3]: 0/6

Alright, here's another compound for you.
(Q) Reported Number of dead mice for 7 days for CCC1O[C@H](CN)[C@@H](CN)O1.O=C1C[O][Pt][O]1 [Example 6] : what is it?
(A) 0/6

---

Please provide measured Lethality for the entries that follow.
System: ICR mice
test-protocol: Acute toxicity test
Assay type: in vivo
Set-up: unit not given here
condition-info: female, 41.3 mg/kg i.p.; 10080 min
Answers are plain numbers.

Sample records with Lethality:
CC(C)C1OC(CN)C(CN)O1.CC1[O][Pt][O]C1=O (centres unmarked): 33.3
CC1[O][Pt][O]C1=O.NCC1OC2(CCCC2)OC1CN (centres unmarked): 0.0
CC1[O][Pt][O]C1=O.CCC1OC(CN)C(CN)O1 (centres unmarked): 55.0
CCC1(CC)OC2C[NH2+][Pt-2]3([NH2+]CC2O1)[O]CC(=O)[O]3 (centres unmarked): 0.0

Alright, here's another molecule for you.
(Q) Reported Lethality for CCC1(C)OC2C[NH2+][Pt-2]3([NH2+]CC2O1)[O]CC(=O)[O]3 (centres unmarked) : what is it?
(A) 0.0

---

Test system: ICR mice
test-protocol: Acute toxicity test
Assay type: in vivo
condition-info: female, 71.4 mg/kg i.p.
Description: 7-week-old ICR mice(male: 34±2 g; female: 31±2 g) were fed with solid food and water under the condition of 23±1° C. temperature and 65±5% humidity before the test. Each treatment group consisted of 6 mice. The test compounds were administered intraperitoneally. For 7 days after the administration, the appearance and the fate of the tested animals were recorded. The dead animals were subjected to autopsy and their visible pathological changes were observed. […]
assay-readout: Number of dead mice for 7 days

Would you mind listing Number of dead mice for 7 days for each of the following molecules?
1. CCC1(C)OC2C[NH2+][Pt-2]3([NH2+]CC2O1)[O]CC(=O)[O]3 (stereo not shown)
2. CCC1O[C@H](CN)[C@@H](CN)O1.O=C1C[O][Pt][O]1
3. CCC1(CC)OC2C[NH2+][Pt-2]3([NH2+]CC2O1)[O]CC(=O)[O]3 (stereo not shown)
4. CC1[O][Pt][O]C1=O.CCC1OC(CN)C(CN)O1 (stereo not shown)
5. CC1[O][Pt][O]C1=O.NCC1OC2(CCCC2)OC1CN (stereo not shown)
6. NC[C@H]1OC2(CCCC2)O[C@@H]1CN.O=C1C[O][Pt][O]1

(A)
5/6
6/6
5/6
5/6
5/6
6/6

Would you mind listing Number of dead mice for 7 days for each of the following molecules?
1. CC(C)C1OC(CN)C(CN)O1.CC1[O][Pt][O]C1=O (stereo not shown)
2. CC1(C)O[C@H](CN)[C@@H](CN)O1.O=C1C[O][Pt][O]1
3. CC(C)C1O[C@H](CN)[C@@H](CN)O1.O=C1C[O][Pt][O]1

(A)
5/6
6/6
4/6

(Q) Reported Number of dead mice for 7 days for "NC[C@H]1OC2(CCCCC2)O[C@@H]1CN.O=C1C[O][Pt][O]1" : what is it?
(A) 4/6

---

Please provide measured T/C (%) for the entries that follow.
Tested on: murine leukemia L1210
test-protocol: Antitumor activity test on murine leukemia L1210 in vivo
Design: species or system male BDF1 mice
condition-info: 6.2 mg/kg i.p., days 1, 5, 9
Answers are plain numbers, in %.

CCC1(C)OC2C[NH2+][Pt-2]3([NH2+]CC2O1)[O]CC(=O)[O]3 (centres unmarked): 187

Would you mind listing T/C (%) for each of the following molecules?
1. CC1(C)OC2C[NH2+][Pt-2]3([NH2+]CC2O1)[O]C(=O)C1(CCC1)C(=O)[O]3 (centres unmarked) [Example 27]
2. NC[C@H]1OCO[C@@H]1CN.O=C1C[O][Pt][O]1
3. CC1(C)O[C@H](CN)[C@@H](CN)O1.O=C1C[O][Pt][O]1

(A)
1: 112; 2: 132; 3: 179

Would you mind listing T/C (%) for each of the following molecules?
1. CC(C)(C)C1OC2C[NH2+][Pt-2]3([NH2+]CC2O1)[O]CC(=O)[O]3 (centres unmarked)
2. CCC1(CC)OC2C[NH2+][Pt-2]3([NH2+]CC2O1)[O]CC(=O)[O]3 (centres unmarked)
3. CC(C)CC1OC2C[NH2+][Pt-2]3([NH2+]CC2O1)[O]CC(=O)[O]3 (centres unmarked)
4. N.N.O=C([O-])C1(C(=O)[O-])CCC1.[Pt+2] [carboplatin, reference compound]

(A)
[136, 198, 146, 107]

---

Please provide measured Number of dead mice for 7 days for the entries that follow.
Test system: ICR mice
test-protocol: Acute toxicity test
Type: in vivo
condition-info: female, 208 mg/kg i.p.

Sample records with Number of dead mice for 7 days:
CCC1OC2C[NH2+][Pt-2]3([NH2+]CC2O1)[O]C(=O)C1(CCC1)C(=O)[O]3 (centres unmarked): 0/6
O=C1[O][Pt-2]2([NH2+]CC3OCOC3C[NH2+]2)[O]C(=O)C12CCC2 (centres unmarked): 6/6
O=C1[O][Pt-2]2([NH2+]CC3OC4(CCCC4)OC3C[NH2+]2)[O]C(=O)C12CCC2 (centres unmarked): 4/6
CC1OC2C[NH2+][Pt-2]3([NH2+]CC2O1)[O]C(=O)C1(CCC1)C(=O)[O]3 (centres unmarked): 5/6

Alright, here's another compound for you.
(Q) Give the reported Number of dead mice for 7 days for CC1(C)OC2C[NH2+][Pt-2]3([NH2+]CC2O1)[O]C(=O)C1(CCC1)C(=O)[O]3 (centres unmarked) (system: ICR mice).
(A) 0/6

---

Tested on: ICR mice
test-protocol: Acute toxicity test
Assay type: in vivo
condition-info: female, 270 mg/kg i.p.
Please provide measured Number of dead mice for 7 days for the entries that follow.

Sample records with Number of dead mice for 7 days:
O=C1[O][Pt-2]2([NH2+]CC3OC4(CCCC4)OC3C[NH2+]2)[O]C(=O)C12CCC2 (centres unmarked): 6/6
CC1(C)OC2C[NH2+][Pt-2]3([NH2+]CC2O1)[O]C(=O)C1(CCC1)C(=O)[O]3 (centres unmarked): 1/6
CC1OC2C[NH2+][Pt-2]3([NH2+]CC2O1)[O]C(=O)C1(CCC1)C(=O)[O]3 (centres unmarked): 6/6
CCC1OC2C[NH2+][Pt-2]3([NH2+]CC2O1)[O]C(=O)C1(CCC1)C(=O)[O]3 (centres unmarked): 3/6

Alright, here's another compound for you.
(Q) Give the reported Number of dead mice for 7 days for O=C1[O][Pt-2]2([NH2+]CC3OCOC3C[NH2+]2)[O]C(=O)C12CCC2 (centres unmarked) (system: ICR mice).
(A) 6/6

---

Please provide measured Number of dead mice, 1st day for the entries that follow.
Tested on: ICR mice
test-protocol: Acute toxicity test
Type: in vivo
condition-info: male, 208 mg/kg i.p.

CC1OC2C[NH2+][Pt-2]3([NH2+]CC2O1)[O]C(=O)C1(CCC1)C(=O)[O]3 (centres unmarked) [Example 22]: 0/6
CCC1OC2C[NH2+][Pt-2]3([NH2+]CC2O1)[O]C(=O)C1(CCC1)C(=O)[O]3 (centres unmarked) [Example 24]: 0/6
O=C1[O][Pt-2]2([NH2+]CC3OC4(CCCC4)OC3C[NH2+]2)[O]C(=O)C12CCC2 (centres unmarked) [Example 30]: 1/6
CC1(C)OC2C[NH2+][Pt-2]3([NH2+]CC2O1)[O]C(=O)C1(CCC1)C(=O)[O]3 (centres unmarked) [Example 26]: 0/6

Alright, here's another molecule for you.
(Q) Reported Number of dead mice, 1st day for O=C1[O][Pt-2]2([NH2+]CC3OCOC3C[NH2+]2)[O]C(=O)C12CCC2 (centres unmarked) [Example 20] : what is it?
(A) 0/6

---

Please provide measured Number of dead mice for 7 days for the entries that follow.
Tested on: ICR mice
test-protocol: Acute toxicity test
Type: in vivo
condition-info: female, 42.3 mg/kg i.p.
Method: 7-week-old ICR mice(male: 34±2 g; female: 31±2 g) were fed with solid food and water under the condition of 23±1° C. temperature and 65±5% humidity before the test. Each treatment group consisted of 6 mice. The test compounds were administered intraperitoneally. For 7 days after the administration, the appearance and the fate of the tested animals were recorded. The dead animals were subjected to autopsy and their visible pathological changes were observed. […]

Sample records with Number of dead mice for 7 days:
CC(C)C1O[C@H](CN)[C@@H](CN)O1.O=C1C[O][Pt][O]1 [Example 7]: 1/6
NC[C@H]1OC2(CCCCC2)O[C@@H]1CN.O=C1C[O][Pt][O]1 [Example 4]: 0/6
NC[C@H]1OC2(CCCC2)O[C@@H]1CN.O=C1C[O][Pt][O]1 [Example 3]: 2/6
CCC1O[C@H](CN)[C@@H](CN)O1.O=C1C[O][Pt][O]1 [Example 6]: 3/6

(Q) Reported Number of dead mice for 7 days for CC1(C)O[C@H](CN)[C@@H](CN)O1.O=C1C[O][Pt][O]1 [Example 2] : what is it?
(A) 4/6
